Collected pIC50 values appear next to each entry.
- Test system: human BRD4 bromodomain II (Homo sapiens, UniProt O60885)
- Construct: human BRD4 bromodomain II [based on Genbank NM_058243, residues 349-460]; host or cells: E. coli
- Experimental protocol: Bromodomain binding assay (AlphaScreen), BRD4 BDII
- Applied conditions: AlphaScreen assay, Table C2; read-out: BRD4 BDII IC50
pIC50: −log10 of the molar value.

> print(dat)
                                    compound         result
 1  CN1CCN(c2ccc(-c3cc(F)cc(-c4cc(C5=CCNCC5)cn(C)c4=O)c3O)cc2Cl)C1=O [Example 401]         < 7.00
 2  Cn1ccn(-c2ccc(-c3cc(F)cc(-c4ccnc(N5CCNC(CCO)C5)c4)c3O)cc2Cl)c1=O (stereo not drawn) [Example 640]  9.00 to 11.00
 3  [2H]C([2H])([2H])n1ccn(-c2ccc(-c3cc(F)cc(-c4ccnc(N5CCN[C@H](C)C5)c4)c3O)cc2Cl)c1=O [Example 453]  9.00 to 11.00
 4  CC(=O)Nc1ccc(-c2cccc(-c3cnc4[nH]ccc4c3)c2O)cc1F [Example 124]         < 7.00
 5  CN1CCN(c2ccc(-c3cc(F)cc(-c4ccnc(N(C)CCN)c4)c3O)cc2Cl)C1=O [Example 347]   7.00 to 8.00
 6  CC(=O)NCCNc1ncc(-c2cc(F)cc(-c3ccc(N4CCN(C)C4=O)c(Cl)c3)c2O)cc1N1CCNCC1 [Example 395]   8.00 to 9.00
 7  Cn1ccn(-c2ccc(-c3cc(F)cc(-c4cncc(N5CC6CCC(C5)N6)c4)c3O)cc2Cl)c1=O [Example 512]   8.00 to 9.00
 8  CC1CN(c2cc(-c3cccc(-c4ccc(N5CCCC5=O)c(F)c4)c3O)ccn2)CC(C)N1 (stereo not drawn) [Example 266]   8.00 to 9.00
 9  COCCN1CCN(c2cc(-c3cc(F)cc(-c4ccc(-n5ccn(C)c5=O)c(Cl)c4)c3O)ccn2)CC1 [Example 645]  9.00 to 11.00
10  C[C@@H]1CN(c2cc(-c3cc(F)cc(-c4ccc(-n5ccn(C)c5=O)c(F)c4)c3O)ccn2)CCN1 [Example 534]   8.00 to 9.00

Form field pIC50 for item O=C1CCCN1c1c(Cl)cc(-c2cc(F)cc(-c3ccnc(N4CCNCC4)c3)c2O)cc1Cl [Example 402] on human BRD4 bromodomain II (Homo sapiens, UniProt O60885): < 7.00

Form field pIC50 for item CN1CCN(c2c(Cl)cc(-c3cc(F)cc(-c4ccnc(N5CCNCC5)c4)c3O)cc2C#N)C1=O [Example 426] on human BRD4 bromodomain II (Homo sapiens, UniProt O60885): < 7.00

---

- Test system: human SKM-1 acute myeloid leukemia cells
- Experimental protocol: SKM-1 antiproliferation cell-based assay (ATPlite)
- Applied conditions: Homo sapiens, SKM-1, 96 h, SKM-1 antiproliferation assay, 4 days, Table C2
Collected GI50 values appear next to each entry.

> print(dat)
                           structure.smiles                               test.system          result
1  CC(=O)Nc1ccc(-c2cccc(-c3ccnc(N4CC[C@@H](O)C4)c3)c2O)cc1F  human SKM-1 acute myeloid leukemia cells  0.03 to 0.3 µM

GI50 measured on CN1CCN(c2ccc(-c3cc(F)cc(-c4cc(C5=CCNCC5)cn(C)c4=O)c3O)cc2Cl)C1=O = 0.3 to 3 µM

GI50 measured on Cc1ncc(-c2cc(F)cc(-c3ccc(-n4ccn(C)c4=O)c(Cl)c3)c2O)cc1N1CCN(C(C)C)CC1 = 0.0003 to 0.03 µM

GI50 measured on Cn1ccn(-c2ccc(-c3cc(F)cc(-c4cc(N5CC6CCC(C5)N6)c5cnn(C)c5c4)c3O)cc2Cl)c1=O = 0.0003 to 0.03 µM

---

- Test system: human SKM-1 acute myeloid leukemia cells
- Experimental protocol: SKM-1 antiproliferation cell-based assay (ATPlite)
- Applied conditions: Homo sapiens, SKM-1, 96 h, SKM-1 antiproliferation assay, 4 days, Table C2
Reported property: GI50

GI50 measured on Cn1ccn(-c2ccc(-c3cc(F)cc(-c4ccnc(N5CCN(CCCO)CC5)c4)c3O)cc2Cl)c1=O = 0.3 to 30 nM

GI50 measured on C[C@@H]1CN(c2cc(-c3cc(F)cc(-c4ccc(-n5ccn(C)c5=O)c(Cl)c4)c3O)ccn2)C[C@H](C)N1 = 0.3 to 30 nM

GI50 measured on CN1CCN(c2ccc(-c3cccc(-c4cc(CO)cc(N5CCNCC5)c4)c3O)cc2Cl)C1=O = 30 to 300 nM

GI50 measured on CC(=O)Nc1ccc(-c2cccc(-c3ccnc(N4CCC(CO)C4)c3)c2O)cc1F (stereo not drawn) = 300 to 3000 nM

GI50 measured on Cn1ccn(-c2ccc(-c3cc(F)cc(-c4cncc(N5CCC(C)(O)C5)c4)c3O)cc2Cl)c1=O (stereo not drawn) = 0.3 to 30 nM

GI50 measured on Cn1ccn(-c2ccc(-c3cc(F)cc(-c4ccnc(N5CC[C@H](C(N)=O)C5)c4)c3O)cc2Cl)c1=O = 30 to 300 nM

GI50 measured on Cn1ccn(-c2ccc(-c3cc(F)cc(-c4ccnc(N5CCN(C6CC6)CC5)c4)c3O)cc2Cl)c1=O = 30 to 300 nM

GI50 measured on CC(=O)Nc1ccc(-c2cccc(-c3ccnc(N4CCN[C@H](C)C4)c3)c2O)cc1Cl = 300 to 3000 nM

GI50 measured on O=C1CCCN1c1ccc(-c2cccc(-c3cncc(N4CCNCC4)c3)c2O)cc1F = 30 to 300 nM

---

- Test system: human BRD4 bromodomain II (Homo sapiens, UniProt O60885)
- Construct: human BRD4 bromodomain II [based on Genbank NM_058243, residues 349-460]; host or cells: E. coli
- Experimental protocol: Bromodomain binding assay (AlphaScreen), BRD4 BDII
- Applied conditions: AlphaScreen assay, Table C2; read-out: BRD4 BDII IC50
pIC50: −log10 of the molar value.
Reported property: pIC50

Below: 8 compounds and their reported pIC50.
> print(dat)
                                   compound         result
1  COCC(C)(C)N1CCN(c2cc(-c3cc(F)cc(-c4ccc(-n5ccn(C)c5=O)c(Cl)c4)c3O)cn(C)c2=O)CC1 [Example 763]   8.00 to 9.00
2  Cn1ccn(-c2ccc(-c3cc(F)cc(-c4ccnc(N5CCCC(C)(O)C5)c4)c3O)cc2Cl)c1=O (stereo not drawn) [Example 714]  9.00 to 11.00
3  C[C@@H]1CN(c2cc(-c3cc(F)cc(-c4ccc(-n5ccn(C)c5=O)c(Cl)c4)c3O)cn(CCCO)c2=O)CCN1 [Example 630]  9.00 to 11.00
4  CC(=O)Nc1ccc(-c2cccc(-c3cccc(C(C)C)c3)c2O)cc1F [Example 75]         < 7.00
5  CCC(=O)Nc1ccc(-c2cccc(-c3cc(N4CCNCC4)no3)c2O)cc1 [Example 116, 2,2,2-trifluoroacetate]         < 7.00
6  Cn1ccn(-c2ccc(-c3cc(F)cc(-c4ccnc(N5CCN(CC(C)(C)C)CC5)c4)c3O)cc2Cl)c1=O [Example 651]  9.00 to 11.00
7  CN(C)[C@H]1CCCN(c2cc(-c3cc(F)cc(-c4ccc(-n5ccn(C)c5=O)c(Cl)c4)c3O)ccn2)C1 [Example 457]   8.00 to 9.00
8  CC(=O)Nc1ccc(-c2cccc(-c3cccc(-c4nc[nH]n4)c3)c2O)cc1F [Example 208]         < 7.00

pIC50 measured on CC(C)N1CCN(c2cc(-c3cc(F)cc(-c4ccc(-n5ccn(C)c5=O)c(Cl)c4)c3O)cc3[nH]ncc23)CC1 [Example 587] = 8.00 to 9.00

pIC50 measured on CN1CCN(c2ccc(-c3cc(F)cc(-c4ccnc(N5CCNC(C(F)(F)F)C5)c4)c3O)cc2Cl)C1=O (stereo not drawn) [Example 444] = 7.00 to 8.00

pIC50 measured on CC(=O)Nc1ccc(-c2cccc(-c3cccc(N4CCC(CN)C4)c3)c2O)cc1F (stereo not drawn) [Example 203] = 8.00 to 9.00

pIC50 measured on Cn1ccn(-c2ccc(-c3cc(F)cc(-c4ccnc(N5CC[C@@H](C(N)=O)C5)c4)c3O)cc2Cl)c1=O [Example 761] = 8.00 to 9.00

pIC50 measured on CC(=O)Nc1ccc(-c2cc(Cl)cc(-c3ccnc(N4CCNCC4)c3)c2O)cc1F [Example 268] = 8.00 to 9.00

pIC50 measured on COc1cc(-c2cccc(-c3ccc(NC(C)=O)c(F)c3)c2O)ccc1F [Example 157] = < 7.00

pIC50 measured on Cn1ccn(-c2ccc(-c3cc(F)cc(-c4cc(Cl)cc(N5CCN(C(C)(C)C)CC5)c4)c3O)cc2Cl)c1=O [Example 827] = 9.00 to 11.00
